molecular target: JAK 3 (Homo sapiens, UniProt P52333); construct: purchased Eurofins Scientific (assay service); test: JAK Human TK kinase enzymatic radiometric assay (Eurofins), JAK 3; assay type: biochemical; design: unit not given here; conditions: 1 nM; value close to 100 indicates low JAK activity of the compound
Sequence (P52333 whole entry): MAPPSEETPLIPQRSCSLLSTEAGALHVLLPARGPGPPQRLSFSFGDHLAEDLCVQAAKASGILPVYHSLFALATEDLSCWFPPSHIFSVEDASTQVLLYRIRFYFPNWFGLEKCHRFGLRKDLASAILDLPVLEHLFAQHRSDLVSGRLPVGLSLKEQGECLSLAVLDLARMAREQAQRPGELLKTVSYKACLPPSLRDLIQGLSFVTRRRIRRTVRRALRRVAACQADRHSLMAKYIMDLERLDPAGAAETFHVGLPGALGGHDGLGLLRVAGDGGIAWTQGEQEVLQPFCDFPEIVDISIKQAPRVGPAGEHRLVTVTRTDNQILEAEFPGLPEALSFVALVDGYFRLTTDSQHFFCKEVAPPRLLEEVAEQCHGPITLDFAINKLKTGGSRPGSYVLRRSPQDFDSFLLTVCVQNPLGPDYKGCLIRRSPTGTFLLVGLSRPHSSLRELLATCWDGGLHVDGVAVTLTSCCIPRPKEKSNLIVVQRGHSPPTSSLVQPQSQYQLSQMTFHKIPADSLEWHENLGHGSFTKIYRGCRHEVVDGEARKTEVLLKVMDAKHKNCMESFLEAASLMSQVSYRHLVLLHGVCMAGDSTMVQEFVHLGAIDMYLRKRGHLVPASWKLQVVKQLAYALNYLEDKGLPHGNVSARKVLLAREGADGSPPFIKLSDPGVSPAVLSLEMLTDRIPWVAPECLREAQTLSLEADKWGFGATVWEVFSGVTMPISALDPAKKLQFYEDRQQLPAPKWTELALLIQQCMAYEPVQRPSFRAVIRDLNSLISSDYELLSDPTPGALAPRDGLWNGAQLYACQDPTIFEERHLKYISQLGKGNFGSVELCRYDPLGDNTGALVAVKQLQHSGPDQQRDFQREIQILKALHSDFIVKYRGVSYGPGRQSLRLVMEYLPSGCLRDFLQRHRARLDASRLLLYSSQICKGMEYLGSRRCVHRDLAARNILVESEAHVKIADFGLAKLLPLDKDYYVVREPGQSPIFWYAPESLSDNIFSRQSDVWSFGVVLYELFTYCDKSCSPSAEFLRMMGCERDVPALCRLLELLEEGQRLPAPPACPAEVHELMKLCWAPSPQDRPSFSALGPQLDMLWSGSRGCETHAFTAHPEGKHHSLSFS
outcomeMeasure: JAK 3 Activity

Below, 3 compounds whose answers are already recorded.
C[C@@H]1CCN(C(=O)CC#N)C[C@@H]1N(C)c1ncnc2c1ccn2C(=O)N(C(=O)Nc1ccccc1N)c1ccccc1N | 103
Cc1ccc(NC(=O)N(C(=O)n2ccc3c(N(C)[C@H]4CN(C(=O)CC#N)CC[C@H]4C)ncnc32)c2ccc(C)cc2N)c(N)c1 | 107
COc1ccc(NC(=O)N(C(=O)n2ccc3c(N(C)[C@H]4CN(C(=O)CC#N)CC[C@H]4C)ncnc32)c2ccc(OC)cc2N)c(N)c1 | 109

With those in mind, consider the next compound.
Prompt line: Please report JAK 3 Activity with JAK 3 (Homo sapiens, UniProt P52333) for item C[C@@H]1CCN(C(=O)CC#N)C[C@@H]1N(C)c1ncnc2c1ccn2C(=O)Nc1ccccc1N .
Response line: 95

---

JAK 1 Activity overview
molecular target: JAK 1 (Homo sapiens, UniProt P23458); experiment: JAK Human TK kinase enzymatic radiometric assay (Eurofins), JAK 1; details: 1 nM; value close to 100 indicates low JAK activity of the compound
Sequence (P23458 whole entry): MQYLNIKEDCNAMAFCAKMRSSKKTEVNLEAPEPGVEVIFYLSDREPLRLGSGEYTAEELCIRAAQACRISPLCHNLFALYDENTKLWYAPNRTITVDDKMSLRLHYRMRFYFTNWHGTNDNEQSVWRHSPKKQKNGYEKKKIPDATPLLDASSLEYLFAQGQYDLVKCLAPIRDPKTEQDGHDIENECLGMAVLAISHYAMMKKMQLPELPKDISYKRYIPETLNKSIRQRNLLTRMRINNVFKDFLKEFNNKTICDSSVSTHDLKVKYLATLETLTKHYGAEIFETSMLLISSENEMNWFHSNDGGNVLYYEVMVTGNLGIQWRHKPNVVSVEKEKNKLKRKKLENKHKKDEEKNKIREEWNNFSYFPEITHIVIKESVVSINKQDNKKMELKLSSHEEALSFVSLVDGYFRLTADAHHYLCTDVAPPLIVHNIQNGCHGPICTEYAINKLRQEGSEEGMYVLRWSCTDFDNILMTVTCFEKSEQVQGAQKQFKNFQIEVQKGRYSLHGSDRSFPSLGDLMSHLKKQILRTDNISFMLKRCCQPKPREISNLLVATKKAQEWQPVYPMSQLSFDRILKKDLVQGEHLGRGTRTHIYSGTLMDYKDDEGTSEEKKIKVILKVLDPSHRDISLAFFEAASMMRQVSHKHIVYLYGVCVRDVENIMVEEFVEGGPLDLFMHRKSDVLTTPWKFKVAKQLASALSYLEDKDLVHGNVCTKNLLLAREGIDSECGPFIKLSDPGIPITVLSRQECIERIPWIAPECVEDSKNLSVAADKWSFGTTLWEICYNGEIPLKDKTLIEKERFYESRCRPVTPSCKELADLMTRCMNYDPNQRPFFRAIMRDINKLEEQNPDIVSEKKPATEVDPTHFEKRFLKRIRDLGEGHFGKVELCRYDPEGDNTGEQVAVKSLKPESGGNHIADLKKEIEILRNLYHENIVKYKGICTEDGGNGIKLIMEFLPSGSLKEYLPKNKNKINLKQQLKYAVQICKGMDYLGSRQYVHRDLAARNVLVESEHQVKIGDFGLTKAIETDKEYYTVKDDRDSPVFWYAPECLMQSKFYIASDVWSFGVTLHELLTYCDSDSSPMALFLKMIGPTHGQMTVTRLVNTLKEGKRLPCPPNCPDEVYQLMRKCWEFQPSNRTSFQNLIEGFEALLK
Reply: number alone, nothing else.

C[C@@H]1CCN(C(=O)CC#N)C[C@@H]1N(C)c1ncnc2c1ccn2C(=O)N(C)CCN(C)C(=O)Nc1cc(N(C)C)ccc1N | 105

Prompt line: Note down JAK 1 Activity recorded for C[C@@H]1CCN(C(=O)CC#N)C[C@@H]1N(C)c1ncnc2c1ccn2C(=O)N(C)CCN(C)C(=O)Nc1cc(N(C)C)ccc1NC(=O)OCc1ccc(B(O)O)cc1
Response line: 90

Prompt line: Note down JAK 1 Activity recorded for C[C@@H]1CCN(C(=O)CC#N)C[C@@H]1N(C)c1ncnc2c1ccn2C(=O)N(C(=O)Nc1ccccc1N)c1ccccc1N
Response line: 103

---

molecular target: JAK 1 (Homo sapiens, UniProt P23458); test: JAK Human TK kinase enzymatic radiometric assay (Eurofins), JAK 1; details: 1 nM; value close to 100 indicates low JAK activity of the compound
Lab note - cut at 100 for JAK 1 Activity: 1 (yes) if strictly below, 0 (no) if not.

COc1ccc(NC(=O)N(C(=O)n2ccc3c(N(C)[C@H]4CN(C(=O)CC#N)CC[C@H]4C)ncnc32)c2ccc(OC)cc2N)c(N)c1 [Example 13] | 0 (no)
Cc1ccc(NC(=O)N(C)CCN(C)C(=O)n2ccc3c(N(C)[C@H]4CN(C(=O)CC#N)CC[C@H]4C)ncnc32)c(N)c1 [Example 15] | 1 (yes)

Prompt line: Is it true that JAK 1 Activity reported for Cc1ccc(NC(=O)N(C(=O)n2ccc3c(N(C)[C@H]4CN(C(=O)CC#N)CC[C@H]4C)ncnc32)c2ccc(C)cc2N)c(N)c1 [Example 12] is less than 100?
Response line: 0 (no)

Prompt line: Is it true that JAK 1 Activity reported for Cc1ccc(N)c(NC(=O)N(C)CCN(C)C(=O)n2ccc3c(N(C)[C@H]4CN(C(=O)CC#N)CC[C@H]4C)ncnc32)c1 [Example 16] is less than 100?
Response line: 0 (no)

---

target: JAK 2 (Homo sapiens); construct: purchased Eurofins Scientific (assay service); assay: JAK Human TK kinase enzymatic radiometric assay (Eurofins), JAK 2; format: biochemical; parameters: unit not given here; conditions: 10 nM; value close to 100 indicates low JAK activity of the compound
outcomeMeasure: JAK 2 Activity
Reply: number alone, nothing else.

Below, 3 compounds whose answers are already recorded.
Cc1ccc(NC(=O)N(C(=O)n2ccc3c(N(C)[C@H]4CN(C(=O)CC#N)CC[C@H]4C)ncnc32)c2ccc(C)cc2N)c(N)c1 | 102
C[C@@H]1CCN(C(=O)CC#N)C[C@@H]1N(C)c1ncnc2c1ccn2C(=O)Nc1ccccc1N | 69
C[C@@H]1CCN(C(=O)CC#N)C[C@@H]1N(C)c1ncnc2c1ccn2C(=O)N(C(=O)Nc1ccccc1N)c1ccccc1N | 89

Prompt line: Note down JAK 2 Activity recorded for COc1ccc(NC(=O)N(C(=O)n2ccc3c(N(C)[C@H]4CN(C(=O)CC#N)CC[C@H]4C)ncnc32)c2ccc(OC)cc2N)c(N)c1
Response line: 102

---

target: JAK 2 (Homo sapiens, UniProt O60674); construct: purchased Eurofins Scientific (assay service); experiment: JAK Human TK kinase enzymatic radiometric assay (Eurofins), JAK 2; type: biochemical; parameters: unit not given here; conditions: 100 nM; value close to 100 indicates low JAK activity of the compound
Sequence (O60674 whole entry): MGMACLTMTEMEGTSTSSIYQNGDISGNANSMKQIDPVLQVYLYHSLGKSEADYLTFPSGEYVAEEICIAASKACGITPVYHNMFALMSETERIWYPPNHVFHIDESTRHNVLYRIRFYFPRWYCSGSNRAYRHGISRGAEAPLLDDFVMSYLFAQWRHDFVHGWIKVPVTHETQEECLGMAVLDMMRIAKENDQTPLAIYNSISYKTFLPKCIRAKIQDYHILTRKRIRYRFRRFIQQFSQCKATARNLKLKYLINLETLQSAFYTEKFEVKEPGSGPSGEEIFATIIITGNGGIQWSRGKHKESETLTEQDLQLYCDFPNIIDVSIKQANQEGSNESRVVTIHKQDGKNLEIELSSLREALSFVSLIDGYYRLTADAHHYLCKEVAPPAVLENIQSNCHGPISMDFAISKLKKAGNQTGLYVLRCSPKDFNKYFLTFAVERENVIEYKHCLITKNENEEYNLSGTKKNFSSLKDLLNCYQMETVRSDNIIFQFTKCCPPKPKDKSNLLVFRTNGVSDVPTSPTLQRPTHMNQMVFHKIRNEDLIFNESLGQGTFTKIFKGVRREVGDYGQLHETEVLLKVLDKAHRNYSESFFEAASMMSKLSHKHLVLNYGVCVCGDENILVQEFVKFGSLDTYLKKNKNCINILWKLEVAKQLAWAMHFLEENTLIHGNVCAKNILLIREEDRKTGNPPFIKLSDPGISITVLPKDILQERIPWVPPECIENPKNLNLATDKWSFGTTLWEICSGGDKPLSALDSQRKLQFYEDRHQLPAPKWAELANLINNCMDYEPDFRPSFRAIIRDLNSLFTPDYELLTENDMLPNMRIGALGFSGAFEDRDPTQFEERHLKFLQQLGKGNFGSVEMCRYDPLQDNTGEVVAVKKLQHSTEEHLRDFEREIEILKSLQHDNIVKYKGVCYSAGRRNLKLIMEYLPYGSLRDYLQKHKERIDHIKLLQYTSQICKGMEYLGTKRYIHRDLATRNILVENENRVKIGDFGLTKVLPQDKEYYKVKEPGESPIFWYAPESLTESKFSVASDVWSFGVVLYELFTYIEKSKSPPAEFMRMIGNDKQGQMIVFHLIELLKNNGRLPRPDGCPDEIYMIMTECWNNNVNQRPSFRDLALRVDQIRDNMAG
JAK 2 Activity overview
Reply: number alone, nothing else.

Below, 3 molecules whose answers are already recorded.
Cc1ccc(NC(=O)N(C(=O)n2ccc3c(N(C)[C@H]4CN(C(=O)CC#N)CC[C@H]4C)ncnc32)c2ccc(C)cc2N)c(N)c1 | 92
COc1ccc(NC(=O)N(C(=O)n2ccc3c(N(C)[C@H]4CN(C(=O)CC#N)CC[C@H]4C)ncnc32)c2ccc(OC)cc2N)c(N)c1 | 104
C[C@@H]1CCN(C(=O)CC#N)C[C@@H]1N(C)c1ncnc2c1ccn2C(=O)Nc1ccccc1N | 16

With those in mind, consider the next molecule.
Prompt line: Note down JAK 2 Activity recorded for C[C@@H]1CCN(C(=O)CC#N)C[C@@H]1N(C)c1ncnc2c1ccn2C(=O)N(C(=O)Nc1ccccc1N)c1ccccc1N
Response line: 98

---

test: DAF-2 assay of NO scavenging activity without and with H2O2 (ROS); format: biochemical; settings: compound 10 µM; SNAP 100 µM, H2O2 1 mM, DAF-2 10 µM, 3 hours, 37°C
NO Scavenging Activity (%) (Mean±SD) With H2O2 overview
Express your answer in %, writing the number without its unit.

Cc1ccc(NC(=O)OCc2ccc(B3OC(C)(C)C(C)(C)O3)cc2)c(NC(=O)n2ccc3c(N(C)[C@H]4CN(C(=O)CC#N)CC[C@H]4C)ncnc32)c1 | 92.96
CC[C@@H]1CN(C(=O)NCC(F)(F)F)C[C@@H]1c1cnc2cnc3c(ccn3C(=O)Nc3cc4c(cc3NC(=O)OCc3ccc(B(O)O)cc3)n(C)c(=O)n4C)n12 | 32.06
C[C@@H]1CCN(C(=O)CC#N)C[C@@H]1N(C)c1ncnc2c1ccn2C(=O)Nc1ccccc1NC(=O)OCc1ccc(B2OC(C)(C)C(C)(C)O2)cc1 | 89.96

Prompt line: Note down NO Scavenging Activity (%) (Mean±SD) With H2O2 recorded for C[C@@H]1CCN(C(=O)CC#N)C[C@@H]1N(C)c1ncnc2c1ccn2C(=O)Nc1cc2c(cc1NC(=O)OCc1ccc(B3OC(C)(C)C(C)(C)O3)cc1)n(C)c(=O)n2C
Response line: 98.34

---

NO Scavenging Activity (%) (Mean±SD) Without H2O2 overview
test: DAF-2 assay of NO scavenging activity without and with H2O2 (ROS); type: biochemical; conditions: compound 10 µM; SNAP 100 µM, DAF-2 10 µM, 3 hours, 37°C
Express your answer in %, writing the number without its unit.

Cc1ccc(NC(=O)OCc2ccc(B3OC(C)(C)C(C)(C)O3)cc2)c(NC(=O)n2ccc3c(N(C)[C@H]4CN(C(=O)CC#N)CC[C@H]4C)ncnc32)c1 | 42.98

Prompt line: Note down NO Scavenging Activity (%) (Mean±SD) Without H2O2 recorded for C[C@@H]1CCN(C(=O)CC#N)C[C@@H]1N(C)c1ncnc2c1ccn2C(=O)Nc1cc2c(cc1NC(=O)OCc1ccc(B3OC(C)(C)C(C)(C)O3)cc1)n(C)c(=O)n2C
Response line: 14.18

Prompt line: Note down NO Scavenging Activity (%) (Mean±SD) Without H2O2 recorded for CC[C@@H]1CN(C(=O)NCC(F)(F)F)C[C@@H]1c1cnc2cnc3c(ccn3C(=O)Nc3cc4c(cc3NC(=O)OCc3ccc(B(O)O)cc3)n(C)c(=O)n4C)n12
Response line: 9.26

Prompt line: Note down NO Scavenging Activity (%) (Mean±SD) Without H2O2 recorded for C[C@@H]1CCN(C(=O)CC#N)C[C@@H]1N(C)c1ncnc2c1ccn2C(=O)Nc1ccccc1NC(=O)OCc1ccc(B2OC(C)(C)C(C)(C)O2)cc1
Response line: 42.36
